Target: Platelet-activating factor receptor (Cavia porcellus) (UniProt P21556)
Sequence (P21556 whole entry): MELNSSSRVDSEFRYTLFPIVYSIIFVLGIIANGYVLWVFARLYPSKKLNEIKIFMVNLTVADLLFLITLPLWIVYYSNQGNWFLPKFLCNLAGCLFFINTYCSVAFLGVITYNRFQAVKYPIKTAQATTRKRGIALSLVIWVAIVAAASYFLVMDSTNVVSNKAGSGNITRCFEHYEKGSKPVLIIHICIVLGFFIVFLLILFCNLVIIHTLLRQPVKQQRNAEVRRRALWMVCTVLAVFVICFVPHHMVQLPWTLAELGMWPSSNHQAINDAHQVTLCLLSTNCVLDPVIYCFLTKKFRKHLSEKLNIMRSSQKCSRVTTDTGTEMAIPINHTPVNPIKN
Experiment: Ability to prevent PAF-induced bronchoconstriction in guinea pig when administered intravenously
Type: functional
Measure name: ID50 (mg/kg)
I only need the number, in mg/kg, no unit after it.

What measured ID50 goes with "Cc1nnc2n1-c1sc(CCC(=O)N3CCOCC3)cc1C(c1ccccc1Cl)=NC2" ?
0.03

What measured ID50 goes with "CCCCC/C(=C/C=C/C(=O)N[C@H](C)CCCc1cccnc1)c1ccc(OC)cc1" ?
0.78

What measured ID50 goes with "COc1cccc(/C(=C/C=C/C(=O)NCCCCc2cccnc2)c2cccc(F)c2)c1" ?
0.25

What measured ID50 goes with "C[C@H](CCCc1cccnc1)NC(=O)/C=C/C=C(c1cccc(F)c1)c1cccc(F)c1" ?
0.22

What measured ID50 goes with "COc1ccc(C(=C/C=C/C(=O)NCCCCc2cccnc2)c2ccc(OC)cc2)cc1" ?
0.25

What measured ID50 goes with "COc1ccc(/C(=C/C=C/C(=O)N[C@H](C)CCCc2cccnc2)C2CCCCC2)cc1" ?
0.21

What measured ID50 goes with "COc1ccc(C(=C/C=C/C(=O)N[C@@H](CCCc2cccnc2)C(C)C)c2ccc(OC)cc2)cc1" ?
0.43

What measured ID50 goes with "COc1ccc(C(=C/C=C/C(=O)N[C@@H](C)CCCc2cccnc2)c2ccc(OC)cc2)cc1" ?
0.84

What measured ID50 goes with "Cc1ccc(C(=C/C=C/C(=O)NCCCCc2cccnc2)c2ccc(C)cc2)cc1" ?
0.26
